- Test system: LOX IMVI melanoma
- TEST_DETAILS: NCI-60 one-dose screen, 48 h (100 = growth as untreated, 0 = no growth, -100 = all killed)
- APPLIED_CONDITIONS: 10 µM unless noted
Compounds without any hit were thinned out: in the full panel of roughly 83,000, 20% have a hit. Activity calls are given as the source filed them. How the source made its calls: active means growth percent below 10; inactive means the rest.
MEASURE: growth

Task: Which growth is reported for this compound? O=C1c2ccccc2C(=O)N1c1ccccc1
Result: 104% (inactive)

Task: Param item = N#CSCC(=O)c1ccc(Cl)cc1 ; retrieve measured growth.
Result: 12.3% (inactive)

Task: Fill in: growth of O=C(CC1(O)C(=O)Nc2c(Cl)ccc(Cl)c21)c1ccc(Cl)cc1Cl (configuration not stated) is ___
Result: 100% (inactive)

Task: Given N#Cc1ccc([N+](=O)[O-])o1 , state its recorded growth.
Result: 108% (inactive)

Task: Consider the compound shown here: CCOc1ccc(-c2nc3ccc(-c4nc5ccc(N6CCN(C)CC6)cc5[nH]4)cc3[nH]2)cc1 What is its recorded growth?
Result: -88% (active)

Task: I'd like to know its growth. The compound in question is Cc1ccc2c(ccc3c[n+]4c5ccccc5ccc4n32)c1
Result: 22.5% (inactive)

Task: Can you look up the measured growth of CN(C)C(=O)c1ccc(SC(=S)NCc2ccccc2)cc1 for me?
Result: 87.5% (inactive)

Task: What value of growth has been recorded for this entry: O=C1c2ccccc2C(=O)c2sc(Nc3cccc(Cl)c3)nc21
Result: -69.1% (active)

Task: Fill blank: measured growth of the compound CC(=Nc1ccc(N(C)C)cc1)c1ccccc1 is ____.
Result: 60.2% (inactive)

Task: Need growth, item CCCCCCCCCCCCCCCCN(CC)CC
Result: -100% (active)

Task: Endpoint output: growth of Cc1ccnc(NC(c2ccccc2)c2ccc3cccnc3c2O)c1 (configuration not stated) . Value?
Result: 28.1% (inactive)

Task: Given the compound O=C(/C=C\c1cc(Br)ccc1O)/C=C/c1cc(Br)ccc1O , what is its reported growth?
Result: -95.6% (active)

* * *

Give growth for every item shown.
- System: SF-268 CNS
- TEST_DETAILS: NCI-60 one-dose screen, 48 h (100 = growth as untreated, 0 = no growth, -100 = all killed)
- APPLIED_CONDITIONS: 10 µM
This is part of a sample that, as a whole, favours compounds with a hit. Of some 83,000 tested, about 20% had one in any assay. Activity calls are given as the source filed them. How the source made its calls: active means growth percent below 10; inactive means the rest.

Task: Entry CN(C)C(=O)c1ccc(SC(=S)NCc2ccccc2)cc1 : reported growth = ?
Result: 124% (inactive)

Task: Param item = COc1cc(NS(C)(=O)=O)ccc1Nc1c2ccccc2nc2ccccc12 ; retrieve measured growth.
Result: 25.1% (inactive) [middle of 4 runs]

Task: Endpoint output: growth of O=C(Nc1c(Cl)cccc1Cl)Oc1cccc2cccnc12 . Value?
Result: 51.4% (inactive)

Task: Which growth is listed for COc1ccc(-c2cscc2N)cc1 ?
Result: 91% (inactive)

* * *

- System: UACC-62 melanoma
- TEST_DETAILS: NCI-60 one-dose screen, 48 h (100 = growth as untreated, 0 = no growth, -100 = all killed)
- APPLIED_CONDITIONS: 10 µM unless noted
Compounds without any hit were thinned out: in the full panel of roughly 83,000, 20% have a hit. Calls of active or inactive are those of the source. The calls were made as follows: active = growth percent below 10; inactive = the rest.
MEASURE: growth

Task: What value of growth has been reported for the following compound? COC(=O)c1nc(=S)[nH]c(C(=O)OC)c1C(=O)c1ccc2ccccc2c1
Result: 89.4% (inactive)

Task: Look up growth for this compound: O=C(Nc1ccc(F)cc1)ON=C1CCCCC1
Result: 54.5% [100 µM] (inactive)

Task: Bench note: what growth did O=C(CC1(O)C(=O)Nc2c(Cl)ccc(Cl)c21)c1ccc(Cl)cc1Cl (stereo unspecified) show?
Result: 97.8% (inactive)

Task: // lookup growth for S=C(N/N=C/c1ccccn1)Nc1ccccn1
Result: 1.53% (active)

Task: What does the record list as growth for CCOc1ccc(-c2nc3ccc(-c4nc5ccc(N6CCN(C)CC6)cc5[nH]4)cc3[nH]2)cc1 ?
Result: -96.5% (active)

Task: Item under review: N#CSCc1ccc(Cl)c(CSC#N)c1 . Reported growth?
Result: 57.3% (inactive)
